- measurement protocol: Human HepG2 cell viability assay in 384 well format
- Format: toxicity, cell-based
- Design: dose 125 nL, time 70.5 hour; concentration not given beside the values
- condition description: HepG2 cells, read-out: Inhibition
quantity name: cytotoxicity at 70.5 h (%)
Express the result in % but write the number alone.

> print(dat)
                                    compound  numeric.readout
 1  O=S(=O)(c1ccc(Cl)cc1)N1CCOC[C@H](Oc2cnccn2)C1           0.0647
 2            Cc1cc2ncn(C(=O)N3CCOCC3)c2cc1C            -5.67
 3  CCC(=O)N1CCN(C(=O)Nc2ccc(Cl)cc2)[C@H]2CS(=O)(=O)C[C@H]21            -14.3
 4               CCc1nnc(NCc2cccc(OC)c2OC)o1             8.49
 5  CC(C)[C@@H]1CN(C(=O)NCc2ccco2)C[C@H]1N(C)C            -5.48
 6  O=C(CN1C(=O)CCNC1=O)N1CCC(c2ccc(F)cc2)C1 (configuration not stated)            -5.75
 7  CN(C)CC1(O)CCCN(Cc2cnc(-c3ccco3)nc2)CC1 (configuration not stated)            -8.26
 8                    CC(C)CCNc1nnc(C(C)C)s1            -3.84
 9          COc1ccc(CNC(=O)NCCc2csc(C)n2)cn1             10.9
10  O=C1CSC(c2ccc3c(c2)OCO3)c2cnn(C3CCCCC3)c2N1 (configuration not stated)            -13.7

Q. Need cytotoxicity at 70.5 h, item Cc1nc(C)n(C2CCCN(C(=O)CCn3ccnn3)C2)n1 (configuration not stated)
A. 0.306

Q. Same question, Cc1csc(N2CCN(Cc3nccn3C)CC2C)n1 (configuration not stated) this time
A. -16.3
